TESTED_ON: soluble HLA-A*0201 (sHLA-A*0201) (human)
Ends that are not written are not given here. * marks the point of attachment. FITC = O=C1OC2(c3ccc(O)cc3Oc3cc(O)ccc32)c2ccc(NC(=S)*)cc21
PROPERTY_MEASURED: EC50 (nM)
The answer is to be given in nM; state only the numeric part.

ALMDKVLK(FITC)V [A*0201/P5, FITC-labeled peptide ALMDKVL-K(FITC)-V] has a reported EC50 of 327
